Every entry's value here was drawn from patent US10597405B2.

Entries and their IC50
- TARGET_ENTITY: KRasG12C (Homo sapiens, UniProt P01116, G12C)
- Construct: biotin (biotinylated)
- Sequence (P01116 1-188 isoform P01116-2 G12C): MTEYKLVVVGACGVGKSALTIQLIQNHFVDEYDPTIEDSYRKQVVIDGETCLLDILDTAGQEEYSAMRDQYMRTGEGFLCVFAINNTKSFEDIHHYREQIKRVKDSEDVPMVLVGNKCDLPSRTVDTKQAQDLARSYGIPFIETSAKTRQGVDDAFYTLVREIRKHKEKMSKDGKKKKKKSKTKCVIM
- MEASUREMENT_DESCRIPTION: KRasG12C functional assay (HTRF nucleotide exchange / Raf RBD binding)
- CONDITION_NOTES: GDP loaded biotinylated KRasG12C, samples incubated 4 hrs, FRET readout; single experiment or average of two or more
Field format: number, assumed µM, no unit text.

Challenge: Quick check: IC50 of C=CC(=O)N1CCN2c3c(cnc4c(C)c(-c5c(O)cccc5F)c(C)cc34)N(C)C(=O)[C@H]2C1 (single isomer, unassigned) [Compound 44] ?
Response given: 0.142
